Biological target: G protein-coupled receptor 119 (GPR-119) (Mesocricetus auratus, UniProt A0A1U8CD06)
Construct: hamster-derived β-cells containing G protein-coupled receptor 119 (GPR-119), HIT-T15 cells; host or cells: HIT-T15 (hamster pancreatic β-cells)
Sequence (A0A1U8CD06 1-334): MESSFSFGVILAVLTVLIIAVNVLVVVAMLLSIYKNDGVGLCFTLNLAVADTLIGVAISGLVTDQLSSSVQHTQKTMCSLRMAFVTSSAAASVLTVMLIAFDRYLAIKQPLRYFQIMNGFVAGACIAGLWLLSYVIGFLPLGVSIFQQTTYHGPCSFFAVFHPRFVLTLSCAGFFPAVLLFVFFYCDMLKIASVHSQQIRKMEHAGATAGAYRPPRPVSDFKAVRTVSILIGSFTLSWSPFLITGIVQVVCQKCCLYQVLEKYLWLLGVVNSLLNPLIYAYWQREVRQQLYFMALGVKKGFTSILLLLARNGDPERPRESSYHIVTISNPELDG
Test: cAMP activity in HIT-T15 cells (cAMP dynamic kit, FRET)
Format: cell-based, hamster
Details: 1 hour at 37° C., six concentrations 0.0032 to 10 μM, read-out: EC50
endpoint-name: EC50 (µM)
Lab book: enter the figure in µM, no units written.

molecule | EC50 / µM
CCc1cnc(N2CCC(COc3ccc(C4=CCC(C(=O)N5CCNCC5)CC4)cc3F)CC2)nc1 (centres unmarked) [Example 434] | 0.18
CN(CCO)C(=O)C1CC=C(c2ccc(OCC3CCN(C(=O)OC(C)(C)C)CC3)cn2)CC1 (centres unmarked) [Example 341] | 0.18
CCc1cnc(N2CCC(COc3ccc(C4=CCC(C(=O)N5CCSCC5)CC4)cc3F)CC2)nc1 (centres unmarked) [Example 300] | 0.0085
O=C(OC(CF)CF)N1CCC(COc2ccc(C3=CCC(C(=O)N4CCOCC4)CC3)cc2F)CC1 (centres unmarked) [Example 447] | 0.062
CCc1cnc(N2CCC(COc3ccc(C4=CCC(C(=O)N5CCC(F)(F)CC5)CC4)c(F)c3)CC2)nc1 (centres unmarked) [Example 453] | 0.012

Query: Would you mind telling me what EC50 value was observed for CCc1cnc(N2CCC(COc3ccc(C4=CCC(C(=O)N5CCCCC5)CC4)cc3F)CC2)nc1 (centres unmarked) [Example 292] ?
Reply: 0.012

Query: Try the molecule CC1(OC(=O)N2CCC(COc3ccc(C4=CCC(C(=O)N5CCCC5)CC4)cc3F)CC2)CC1 (centres unmarked) [Example 408]
Reply: 0.025

Query: Try the molecule CC(C)c1noc(N2CCC(COc3ccc(C4=CCC(C(=O)N5CCCC5)CC4)cn3)CC2)n1 (centres unmarked) [Example 315]
Reply: 0.068
